Numbers sourced from patent US20110172193A1.

# Tested on: Staphylococcus aureus (OC8525), a methicillin-resistant strain (MRSA)
# EXPERIMENTAL PROTOCOL: In vivo efficacy in a mouse systemic infection model
# EXPERIMENTAL PARAMETERS: Staphylococcus aureus, 72 h; Swiss Webster mice infected i.p. with MRSA, oral dose 1 h later, 3 day survival; normalized to parent content; read-out: ED50 p.o.
Listed compounds paired with reported ED50
MEASURE NAME: ED50

smiles=COc1c(N2CCC/C(=C(\F)CNC(=O)[C@@H](N)C(C)C)C2)c(F)cc2c(=O)c(C(=O)O)cn(C3CC3)c12.Cl experimental_result="9.9 mg/kg"
smiles=COc1c(N2CCC/C(=C(\F)CNC(=O)CN)C2)c(F)cc2c(=O)c(C(=O)O)cn(C3CC3)c12.Cl experimental_result="> 17.6 mg/kg"
smiles=COc1c(N2CCC/C(=C(\F)CNC(=O)[C@H](C)N)C2)c(F)cc2c(=O)c(C(=O)O)cn(C3CC3)c12.Cl experimental_result="19.8 mg/kg"
smiles=COc1c(N2CCC/C(=C(\F)CNC(=O)CNC(=O)[C@@H](N)CCC(=O)O)C2)c(F)cc2c(=O)c(C(=O)O)cn(C3CC3)c12.Cl experimental_result="> 13.9 mg/kg"
smiles=COc1c(N2CCC/C(=C(\F)CNC(=O)[C@@H](N)CC(=O)O)C2)c(F)cc2c(=O)c(C(=O)O)cn(C3CC3)c12.Cl experimental_result="> 15.7 mg/kg"
smiles=COc1c(N2CCC/C(=C(\F)CNC(=O)[C@H](C)NC(=O)[C@H](C)N)C2)c(F)cc2c(=O)c(C(=O)O)cn(C3CC3)c12.Cl experimental_result="> 14.9 mg/kg"

---

# EXPERIMENTAL PROTOCOL: Rat pharmacokinetics
# Format: in vivo, Sprague-Dawley rats
# EXPERIMENTAL PARAMETERS: Sprague-Dawley, in vivo, iv, male rats, 2 mg/kg i.v., analyte: the administered compound itself
MEASURE NAME: clearance (mL/min/kg)

smiles=COc1c(N2CCC/C(=C(\F)CN)C2)c(F)cc2c(=O)c(C(=O)O)cn(C3CC3)c12 measure_name=clearance output_unit=mL/min/kg experimental_result=47.1

---

# EXPERIMENTAL PROTOCOL: Clarity of test compound solutions at […] (aqueous solubility)
# EXPERIMENTAL PARAMETERS: 50 mM citrate buffer, pH 4, aqueous buffer, thermodynamic from solid
Below, each entry is listed alongside its reported solubility at 24 h.
MEASURE NAME: solubility at 24 h

smiles=COc1c(N2CCC/C(=C(\F)CNC(=O)[C@H](C)N)C2)c(F)cc2c(=O)c(C(=O)O)cn(C3CC3)c12.Cl measure_name="solubility at 24 h" experimental_result="> 3300 µg/mL"
smiles=COc1c(N2CCC/C(=C(\F)CNC(=O)CN)C2)c(F)cc2c(=O)c(C(=O)O)cn(C3CC3)c12.Cl measure_name="solubility at 24 h" experimental_result="< 3300 µg/mL"
smiles=COc1c(N2CCC/C(=C(\F)CNC(=O)[C@@H](N)CCCCN)C2)c(F)cc2c(=O)c(C(=O)O)cn(C3CC3)c12.Cl.Cl measure_name="solubility at 24 h" experimental_result="> 3300 µg/mL"
smiles=COc1c(N2CCC/C(=C(\F)CNC(=O)[C@H](CC(C)C)NC(=O)[C@H](C)N)C2)c(F)cc2c(=O)c(C(=O)O)cn(C3CC3)c12.Cl measure_name="solubility at 24 h" experimental_result="< 3300 µg/mL"
smiles=COc1c(N2CCC/C(=C(\F)CNC(=O)[C@@H](N)Cc3ccccc3)C2)c(F)cc2c(=O)c(C(=O)O)cn(C3CC3)c12.Cl measure_name="solubility at 24 h" experimental_result="< 3300 µg/mL"
smiles=COc1c(N2CCC/C(=C(\F)CNC(=O)OCc3oc(=O)oc3C)C2)c(F)cc2c(=O)c(C(=O)O)cn(C3CC3)c12 measure_name="solubility at 24 h" experimental_result="< 3300 µg/mL"
smiles=CCOC(=O)c1cn(C2CC2)c2c(OC)c(N3CCC/C(=C(\F)CN)C3)c(F)cc2c1=O.Cl measure_name="solubility at 24 h" experimental_result="< 3300 µg/mL"
smiles=COc1c(N2CCC/C(=C(\F)CNC(=O)[C@H](C)NC(=O)[C@H](C)N)C2)c(F)cc2c(=O)c(C(=O)O)cn(C3CC3)c12.Cl measure_name="solubility at 24 h" experimental_result="< 3300 µg/mL"
smiles=COc1c(N2CCC/C(=C(\F)CNC(=O)[C@@H](N)CC(=O)O)C2)c(F)cc2c(=O)c(C(=O)O)cn(C3CC3)c12.Cl measure_name="solubility at 24 h" experimental_result="< 3300 µg/mL"
smiles=COc1c(N2CCC/C(=C(\F)CNC(=O)[C@@H](N)C(C)C)C2)c(F)cc2c(=O)c(C(=O)O)cn(C3CC3)c12.Cl measure_name="solubility at 24 h" experimental_result="< 3300 µg/mL"
smiles=CN[C@@H](C)C(=O)NC/C(F)=C1/CCCN(c2c(F)cc3c(=O)c(C(=O)O)cn(C4CC4)c3c2OC)C1.Cl measure_name="solubility at 24 h" experimental_result="> 3300 µg/mL"
